Reference source for all entries: patent US20210230570

- target.of.assay: plasma purified human antithrombin III (AT-III) in complex with full-length unfractionated heparin (UFH)
experimental.readout: K0.5-mut/K0.5-wt

1. FIXa K228N/R318Y/R338E/R403E/E410N (protein) chain 1: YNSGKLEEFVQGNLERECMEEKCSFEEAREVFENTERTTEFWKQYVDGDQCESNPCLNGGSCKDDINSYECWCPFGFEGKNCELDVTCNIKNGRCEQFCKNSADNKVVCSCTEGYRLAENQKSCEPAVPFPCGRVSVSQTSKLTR chain 2: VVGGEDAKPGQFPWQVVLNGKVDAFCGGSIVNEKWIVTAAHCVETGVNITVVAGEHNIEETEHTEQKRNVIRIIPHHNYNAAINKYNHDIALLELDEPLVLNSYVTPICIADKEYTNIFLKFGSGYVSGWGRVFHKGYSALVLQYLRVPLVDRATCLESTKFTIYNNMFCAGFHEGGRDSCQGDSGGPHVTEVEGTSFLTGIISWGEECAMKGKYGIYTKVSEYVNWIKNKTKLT = > 517 fold

Shifting focus to the protein that follows.
### Prompt Which K0.5-mut/K0.5-wt value is on record for FIXa N260S/R318Y/R338E/R403E/E410N (protein) chain 1: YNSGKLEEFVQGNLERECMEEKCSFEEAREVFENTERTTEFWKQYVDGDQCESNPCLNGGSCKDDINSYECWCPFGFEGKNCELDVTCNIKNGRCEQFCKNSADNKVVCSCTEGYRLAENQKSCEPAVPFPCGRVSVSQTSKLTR chain 2: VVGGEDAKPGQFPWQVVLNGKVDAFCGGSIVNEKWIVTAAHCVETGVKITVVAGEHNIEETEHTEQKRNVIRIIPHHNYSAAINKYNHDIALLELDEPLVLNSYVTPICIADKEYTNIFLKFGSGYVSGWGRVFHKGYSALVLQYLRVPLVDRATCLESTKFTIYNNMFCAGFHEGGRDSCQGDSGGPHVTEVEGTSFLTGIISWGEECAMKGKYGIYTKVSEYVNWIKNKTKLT ?
### Response > 517 fold
